Test system: NCI 60 cancer cell line panel
Experiment: NCI-60 five-dose assay, full-panel means
Format: cell-based
PROPERTY MEASURED: CC50 (µM)
Write the number in µM without appending the unit.

In the examples that follow, each entry is paired with its recorded CC50.
Field CC50 (entry O=C(c1ccccc1)c1ccc(N2C(=O)C3C4c5ccccc5C(/C=C/C(=O)c5ccccn5)(c5ccccc54)C3C2=O)cc1 (stereo not drawn) [Compound 26n] ) reads 100

Field CC50 (entry O=C(/C=C/C12c3ccccc3C(c3ccccc31)C1C(=O)N(c3ccccc3)C(=O)C12)c1ccccc1 (stereo not drawn) [Compound 24f] ) reads 72.4

Field CC50 (entry O=C(/C=C/C12c3ccccc3C(c3ccccc31)C1C(=O)NC(=O)C12)c1ccncc1 (stereo not drawn) [Compound 23m] ) reads 28.2

Field CC50 (entry CCc1ccc(C(=O)/C=C/C23c4ccccc4C(c4ccccc42)C2C(=O)NC(=O)C23)cc1 (stereo not drawn) [Compound 23c] ) reads 17

Field CC50 (entry O=C(/C=C/C12c3ccccc3C(c3ccccc31)C1C(=O)N(c3ccccc3)C(=O)C12)c1ccc(Cl)cc1 (stereo not drawn) [Compound 24l] ) reads 43.7

Continuing:
Field CC50 (entry O=C(/C=C/C12c3ccccc3C(c3ccccc31)C1C(=O)NC(=O)C12)c1ccco1 (stereo not drawn) [Compound 23o] ) reads 11

Field CC50 (entry O=C(/C=C/C12c3ccccc3C(c3ccccc31)C1C(=O)NC(=O)C12)c1ccccn1 (stereo not drawn) [Compound 23n] ) reads 14.8

Field CC50 (entry O=C(/C=C/C12c3ccccc3C(c3ccccc31)C1C(=O)NC(=O)C12)c1ccc(Cl)cc1 (racemic) [Compound 23l] ) reads 13.2

Field CC50 (entry O=C(/C=C/C12c3ccccc3C(c3ccccc31)C1C(=O)NC(=O)C12)c1ccc(Cl)cc1Cl (stereo not drawn) [Compound 23d] ) reads 29.5

---

System: HG-3 cells
Experiment: alamarBlue cell viability assay
Conditions: Homo sapiens, HG-3, 24 h, read-out: HG-3 IC50
PROPERTY MEASURED: pIC50
Notebook: values listed as pIC50 are -log10 of the concentration (mol/L).

In the examples that follow, each entry is paired with its recorded pIC50.
Field pIC50 (entry O=C1C2C3c4ccccc4C(C=C[N+](=O)[O-])(c4ccccc43)C2C(=O)N1c1ccc(Cl)cc1 (centres unmarked) [Compound 20b] ) reads 6.07

Field pIC50 (entry O=C1C2C3c4ccccc4C(C=C[N+](=O)[O-])(c4ccccc43)C2C(=O)N1c1ccccc1 (centres unmarked) [Compound 20a] ) reads 6.32

Field pIC50 (entry O=C(C=CC12c3ccccc3C(c3ccccc31)C1C(=O)N(c3ccc(Cl)cc3)C(=O)C12)c1ccccn1 (centres unmarked) [Compound 25n] ) reads 5.88

Field pIC50 (entry O=C1C2C3c4ccccc4C(C=C[N+](=O)[O-])(c4ccccc43)C2C(=O)N1CCCCCCN1C(=O)C2C3c4ccccc4C(C=C[N+](=O)[O-])(c4ccccc43)C2C1=O (centres unmarked) [Compound 20f] ) reads 6.77

Continuing:
Field pIC50 (entry N#CC1CC2c3ccccc3C1(/C=C/[N+](=O)[O-])c1ccccc12 (centres unmarked) [Compound 20e] ) reads 5.80

Field pIC50 (entry O=C1NC(=O)C2C1C1c3ccccc3C2(C=C[N+](=O)[O-])c2ccccc21 (centres unmarked) [Compound 20d] ) reads 6.11

---

// reported Mean TGI (MID TGI, total growth inhibition) per item
Test system: NCI 60 cancer cell line panel
Assay: NCI-60 five-dose assay, full-panel means
Type: cell-based
Settings: mean over NCI 60 cell line panel
Write the number in µM without appending the unit.

In the examples that follow, each entry is paired with its recorded Mean TGI (MID TGI, total growth inhibition).
Field Mean TGI (MID TGI, total growth inhibition) (entry O=C(/C=C/C12c3ccccc3C(c3ccccc31)C1C(=O)NC(=O)C12)c1ccc(Cl)cc1Cl (stereo not shown) [Compound 23d] ) reads 7.580

Field Mean TGI (MID TGI, total growth inhibition) (entry O=C(/C=C/C12c3ccccc3C(c3ccccc31)C1C(=O)NC(=O)C12)c1ccncc1 (stereo not shown) [Compound 23m] ) reads 7.760

Field Mean TGI (MID TGI, total growth inhibition) (entry O=C(/C=C/C12c3ccccc3C(c3ccccc31)C1C(=O)NC(=O)C12)c1ccc(F)cc1 (racemic) [Compound 23h] ) reads 4.265

Continuing:
Field Mean TGI (MID TGI, total growth inhibition) (entry O=C(/C=C/C12c3ccccc3C(c3ccccc31)C1C(=O)N(c3ccccc3)C(=O)C12)c1ccccc1 (stereo not shown) [Compound 24f] ) reads 19.95

---

// reported remaining at 24 h, 14.6 µg/mL per item
Test: HPLC stability study in phosphate buffers
Type: physicochemical
Settings: phosphate buffer; pH 9 buffer, 37 °C, 24 h, HPLC; read-out: % remaining 24 h pH 9
Write the number in % without appending the unit.

Field remaining at 24 h, 14.6 µg/mL (entry O=C(C=CC12c3ccccc3C(c3ccccc31)C1C(=O)NC(=O)C12)c1ccc(Br)cc1 (stereo not shown) [Compound 23a] ) reads 0.48

Continuing:
Field remaining at 24 h, 14.6 µg/mL (entry O=C(/C=C/C12c3ccccc3C(c3ccccc31)C1C(=O)N(c3ccccc3)C(=O)C12)c1ccc(Br)cc1 (stereo not shown) [Compound 24a] ) reads 33.6

Field remaining at 24 h, 14.6 µg/mL (entry O=C(/C=C/c1c2ccccc2cc2ccccc12)c1ccc(Br)cc1 [Compound 21a] ) reads 38.6

Field remaining at 24 h, 14.6 µg/mL (entry COc1ccc(C(=O)/C=C/c2c3ccccc3cc3ccccc23)cc1 [Compound 21i] ) reads 42.1

---

// reported cell viability per item
Test system: HG-3 cells
Conditions: 10 µM
Write the number in % without appending the unit.

Field cell viability (entry O=C(C=CC12c3ccccc3C(c3ccccc31)C1C(=O)N(c3ccc(Cl)cc3)C(=O)C12)c1ccco1 (stereo not shown) [Compound 25o] ) reads 5

Field cell viability (entry O=C(C=CC12c3ccccc3C(c3ccccc31)C1C(=O)N(c3ccccc3)C(=O)C12)c1cccs1 (stereo not shown) [Compound 24q] ) reads 24

Field cell viability (entry O=C(/C=C/C12c3ccccc3C(c3ccccc31)C1C(=O)NC(=O)C12)c1ccccn1 (stereo not shown) [Compound 23n] ) reads 2

Continuing:
Field cell viability (entry O=C(C=CC12c3ccccc3C(c3ccccc31)C1C(=O)N(c3ccccc3)C(=O)C12)c1ccc([N+](=O)[O-])cc1 (stereo not shown) [Compound 24b] ) reads 10

Field cell viability (entry O=C(/C=C/C12c3ccccc3C(c3ccccc31)C1C(=O)N(c3ccc(C(=O)c4ccccc4)cc3)C(=O)C12)c1ccncc1 (stereo not shown) [Compound 26m] ) reads 27

Field cell viability (entry O=C(C=CC12c3ccccc3C(c3ccccc31)C1C(=O)N(c3ccccc3)C(=O)C12)c1ccccn1 (stereo not shown) [Compound 24n] ) reads 4

Field cell viability (entry O=C(/C=C/C12c3ccccc3C(c3ccccc31)C1C(=O)NC(=O)C12)c1ccc(Cl)cc1 (racemic) [Compound 23l] ) reads 0.7

---

// reported melting point per item

Field melting point (entry O=C(/C=C/c1c2ccccc2cc2ccccc12)c1cccs1 [Compound 21q] ) reads 157 to 158 °C

Field melting point (entry COC(=O)C1=C(C(=O)OC)C2(C=CC(=O)c3ccccc3)c3ccccc3C1c1ccccc12 ) reads > 250 °C

Field melting point (entry O=C(/C=C/c1c2ccccc2cc2ccccc12)c1ccncc1 [Compound 21m] ) reads 170 to 173 °C

Continuing:
Field melting point (entry Cc1ccc(C(=O)/C=C/c2c3ccccc3cc3ccccc23)cc1 [Compound 21j] ) reads 98 to 103 °C

Field melting point (entry O=C(/C=C/c1c2ccccc2cc2ccccc12)c1ccccc1 [Compound 21f] ) reads 128 to 130 °C

Field melting point (entry O=C(/C=C/c1c2ccccc2cc2ccccc12)c1ccc(I)cc1 [Compound 21g] ) reads 167 to 173 °C

Field melting point (entry COc1cc(C(=O)/C=C/c2c3ccccc3cc3ccccc23)cc(OC)c1OC [Compound 21k] ) reads 160 to 164 °C

Field melting point (entry CCc1ccc(C(=O)/C=C/c2c3ccccc3cc3ccccc23)cc1 [Compound 21c] ) reads 128 to 129 °C

Field melting point (entry O=C(/C=C/c1c2ccccc2cc2ccccc12)c1ccc2ccccc2c1 [Compound 21p] ) reads 160 to 164 °C

---

// reported half-life at 14.6 µg/mL per item
Assay: HPLC stability study in phosphate buffers
Assay type: physicochemical
Conditions: phosphate buffer; pH 7.4 buffer, 37 °C; read-out: Half-life pH 7.4 (converted)
Description: A preliminary stability study was carried out on selected chalcones, maleic anhydride and maleimide adducts at acidic, neutral and basic conditions (pH 4, 7.4 and 9) using HPLC to determine suitability for further preclinical investigations. […] All samples were analyzed using acetonitrile–water (80:20%, 70:30%, 60:40% isocratic) as the mobile phase over 10 min and a flow rate of 1 mL/min. […]
Write the number in h without appending the unit.

In the examples that follow, each entry is paired with its recorded half-life at 14.6 µg/mL.
Field half-life at 14.6 µg/mL (entry COc1ccc(C(=O)/C=C/c2c3ccccc3cc3ccccc23)cc1 [Compound 21i] ) reads 3.85

Field half-life at 14.6 µg/mL (entry O=C(/C=C/c1c2ccccc2cc2ccccc12)c1ccc(Br)cc1 [Compound 21a] ) reads 2

Okay, next one:
Field half-life at 14.6 µg/mL (entry O=C(/C=C/C12c3ccccc3C(c3ccccc31)C1C(=O)N(c3ccccc3)C(=O)C12)c1ccc(Br)cc1 (stereo not shown) [Compound 24a] ) reads 23.5
